Measured pIC50 values are reported for all entries that follow.
- ASSAYED_SYSTEM: Glycogen synthase kinase-3 beta (Homo sapiens, UniProt P49841)
- Sequence (P49841 whole entry): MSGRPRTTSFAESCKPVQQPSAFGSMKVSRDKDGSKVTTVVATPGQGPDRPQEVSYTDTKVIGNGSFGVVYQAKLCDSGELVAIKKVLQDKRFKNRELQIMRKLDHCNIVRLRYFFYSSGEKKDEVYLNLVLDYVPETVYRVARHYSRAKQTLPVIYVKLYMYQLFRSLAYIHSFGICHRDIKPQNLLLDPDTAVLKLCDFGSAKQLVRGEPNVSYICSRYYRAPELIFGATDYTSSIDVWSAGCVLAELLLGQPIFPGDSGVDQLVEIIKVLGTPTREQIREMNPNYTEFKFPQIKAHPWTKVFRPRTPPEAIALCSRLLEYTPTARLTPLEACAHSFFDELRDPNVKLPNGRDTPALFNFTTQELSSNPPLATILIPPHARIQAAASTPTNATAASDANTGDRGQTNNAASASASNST
- ASSAY_NOTES: Inhibition of N-terminal His6-tagged human recombinant GSK3beta expressed in baculovirus-infected Sf21 cells incubated for 60 mins in presence of ATP by ADP-glo analysis
Notebook: values listed as pIC50 are -log10 of the concentration (mol/L).

Solved cases below.
Request: Report pIC50, nothing else, for this compound: O=c1oc2cc(O)c(O)cc2c2c(-c3ccc(O)c(O)c3)cn(CCc3ccc(O)c(O)c3)c12
Result: 6.10

Request: Tell me measured pIC50 for O=c1oc2cc(O)c(O)cc2c2c3c4cc(O)c(O)cc4oc(=O)c3n(CCc3ccc(O)c(O)c3)c12 please.
Result: 5.51

Request: Provide pIC50 value for the following compound: O=C(O)c1[nH]c2c(=O)oc3cc(O)c(O)cc3c2c1-c1ccc(O)c(O)c1
Result: 5.80

// below: pIC50 requested for another compound
Request: Determine from records and report pIC50 for COc1cc2c(cc1O)CCn1c-2c(-c2ccc(O)c(O)c2)c2c3cc(O)c(OC)cc3oc(=O)c21
Result: 5.52

* * *

- ASSAYED_SYSTEM: UniProtKB P22303
- Sequence (P22303 whole entry): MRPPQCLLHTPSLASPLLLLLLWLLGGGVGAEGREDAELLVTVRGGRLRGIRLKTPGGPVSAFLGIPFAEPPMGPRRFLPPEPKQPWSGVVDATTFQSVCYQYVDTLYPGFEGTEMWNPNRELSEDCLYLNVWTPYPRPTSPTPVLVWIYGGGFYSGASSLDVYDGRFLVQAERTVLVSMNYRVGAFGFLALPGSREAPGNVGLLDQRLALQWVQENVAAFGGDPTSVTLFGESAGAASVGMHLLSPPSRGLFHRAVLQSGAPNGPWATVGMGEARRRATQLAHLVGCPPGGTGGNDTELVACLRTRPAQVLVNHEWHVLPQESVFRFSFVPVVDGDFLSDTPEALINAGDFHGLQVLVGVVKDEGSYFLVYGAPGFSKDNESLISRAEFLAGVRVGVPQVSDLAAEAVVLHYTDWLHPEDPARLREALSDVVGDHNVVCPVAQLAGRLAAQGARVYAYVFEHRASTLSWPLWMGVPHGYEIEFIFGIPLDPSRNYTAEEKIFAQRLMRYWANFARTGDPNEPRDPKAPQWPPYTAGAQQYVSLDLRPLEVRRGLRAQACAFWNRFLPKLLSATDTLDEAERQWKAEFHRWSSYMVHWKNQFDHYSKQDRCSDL
- ASSAY_NOTES: Inhibition of AChE (unknown origin)
READOUT_NAME: IC50 (µM)
Could you give me the number in µM? Just the number is fine.

Request: Given COc1cc(/C=C/C(=O)NCCc2ccc(O)c(O)c2)ccc1O [N-TRANS-FERULOYLDOPAMINE] , respond with its IC50.
Result: 8.52

* * *

In this section we review reported IC50 values for a set of compounds.
- ASSAYED_SYSTEM: Cyclin-dependent kinase 5/CDK5 activator 1 (Homo sapiens)
- Sequence (Q00535 whole entry): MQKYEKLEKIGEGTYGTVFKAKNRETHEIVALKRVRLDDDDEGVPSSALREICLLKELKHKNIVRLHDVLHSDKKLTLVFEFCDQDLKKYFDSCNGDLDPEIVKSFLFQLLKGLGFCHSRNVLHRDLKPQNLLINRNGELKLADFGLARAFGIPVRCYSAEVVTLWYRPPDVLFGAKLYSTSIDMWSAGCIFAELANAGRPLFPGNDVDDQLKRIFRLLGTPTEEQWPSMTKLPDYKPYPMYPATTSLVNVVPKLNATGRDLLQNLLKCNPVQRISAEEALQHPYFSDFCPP
- Sequence (Q15078 whole entry, further chain): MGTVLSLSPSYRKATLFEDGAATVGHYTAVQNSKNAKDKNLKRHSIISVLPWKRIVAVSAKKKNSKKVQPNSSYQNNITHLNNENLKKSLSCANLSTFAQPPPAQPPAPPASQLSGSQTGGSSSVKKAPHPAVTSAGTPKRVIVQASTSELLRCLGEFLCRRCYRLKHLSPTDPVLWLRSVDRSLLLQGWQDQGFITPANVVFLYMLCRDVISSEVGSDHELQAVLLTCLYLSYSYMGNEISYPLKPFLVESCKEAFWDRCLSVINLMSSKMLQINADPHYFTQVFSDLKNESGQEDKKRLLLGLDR
- ASSAY_NOTES: Inhibition of N-terminal full length human recombinant CDK5/p25 expressed in baculovirus-infected Sf21 cells incubated for 60 mins in presence of ATP by kinase-glo luminescent assay
Write the answer as a number in nM, unit excluded.

Request: Quick one: give measured IC50 for O=c1oc2cc(O)c(O)cc2c2c3c4cc(O)c(O)cc4oc(=O)c3n(CCc3ccc(O)c(O)c3)c12
Result: 10000

Request: Identify IC50 associated with the compound COc1cc2c(cc1O)CCn1c-2c(-c2ccc(O)c(O)c2)c2c3cc(O)c(OC)cc3oc(=O)c21
Result: 1100

---
Request: Look up and report measured IC50 for this entry: O=c1oc2cc(O)c(O)cc2c2c(-c3ccc(O)c(O)c3)cn(CCc3ccc(O)c(O)c3)c12
Result: 2600

Request: Write down IC50 measured for item O=C(O)c1[nH]c2c(=O)oc3cc(O)c(O)cc3c2c1-c1ccc(O)c(O)c1
Result: 10900

* * *

- ASSAYED_SYSTEM: UniProt P52333
- Sequence (P52333 whole entry): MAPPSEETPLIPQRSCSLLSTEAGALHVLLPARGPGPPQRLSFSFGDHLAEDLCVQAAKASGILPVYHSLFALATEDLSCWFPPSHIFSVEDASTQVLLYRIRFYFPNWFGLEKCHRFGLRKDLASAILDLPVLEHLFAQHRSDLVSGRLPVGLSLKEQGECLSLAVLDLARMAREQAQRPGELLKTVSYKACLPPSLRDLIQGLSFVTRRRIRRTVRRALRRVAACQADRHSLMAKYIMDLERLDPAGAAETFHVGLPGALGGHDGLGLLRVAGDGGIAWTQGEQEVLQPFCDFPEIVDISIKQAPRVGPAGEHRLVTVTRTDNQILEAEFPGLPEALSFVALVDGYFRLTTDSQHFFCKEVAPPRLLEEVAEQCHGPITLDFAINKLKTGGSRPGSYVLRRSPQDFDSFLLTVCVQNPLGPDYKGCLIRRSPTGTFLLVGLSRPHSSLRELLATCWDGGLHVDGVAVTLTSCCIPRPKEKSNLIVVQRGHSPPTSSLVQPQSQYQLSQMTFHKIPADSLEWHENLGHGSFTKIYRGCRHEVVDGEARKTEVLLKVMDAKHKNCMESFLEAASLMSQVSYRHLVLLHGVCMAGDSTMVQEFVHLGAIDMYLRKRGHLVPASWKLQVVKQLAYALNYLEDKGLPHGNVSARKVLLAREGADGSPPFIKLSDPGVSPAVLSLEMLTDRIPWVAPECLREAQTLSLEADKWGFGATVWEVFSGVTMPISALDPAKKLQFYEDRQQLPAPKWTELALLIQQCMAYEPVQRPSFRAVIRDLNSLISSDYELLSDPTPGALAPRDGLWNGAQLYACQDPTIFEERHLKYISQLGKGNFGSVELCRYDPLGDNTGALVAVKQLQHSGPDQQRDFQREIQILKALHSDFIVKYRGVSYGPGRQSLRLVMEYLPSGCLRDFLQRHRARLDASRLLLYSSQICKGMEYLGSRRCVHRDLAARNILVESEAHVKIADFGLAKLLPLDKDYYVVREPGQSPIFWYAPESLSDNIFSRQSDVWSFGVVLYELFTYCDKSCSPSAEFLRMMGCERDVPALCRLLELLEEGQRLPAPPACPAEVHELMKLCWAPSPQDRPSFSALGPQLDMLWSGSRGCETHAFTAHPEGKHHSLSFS
READOUT_NAME: pIC50
Note on units: pIC50 is unitless, being -log10 of a concentration expressed in mol/L.

Request: Identify the reported pIC50 for the following entry. Cc1cnc(-c2ccc(O)c(O)c2)c(C)n1
Result: 4.90

The reported numbers originate from ChEMBL document CHEMBL5390243.
